The measured values listed here are drawn from patent US11286268B1.

target: recombinant eIF4E (Homo sapiens (Human), UniProt P06730); assay: Fluorescence polarization competition assay for eIF4E binding potency; details: inhibition of eIF4E/EDA-m7GDP-ATTO-550 binding by 50%; Table 4B calculated values; read-out: IC50
Sequence (P06730 whole entry): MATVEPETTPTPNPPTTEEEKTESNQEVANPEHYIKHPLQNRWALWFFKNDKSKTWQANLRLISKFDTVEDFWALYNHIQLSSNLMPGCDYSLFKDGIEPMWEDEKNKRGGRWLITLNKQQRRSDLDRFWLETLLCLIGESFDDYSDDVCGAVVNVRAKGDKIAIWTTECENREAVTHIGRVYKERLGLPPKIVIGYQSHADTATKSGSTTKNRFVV
measured.endpoint: IC50 (nM)
Give just the numeric value; nM need not be written.

>>> data_value("Cc1cc(-c2cc(Cl)ccc2OCCn2c(C)nc3cc(C(F)F)c(CN4CCN(C)CC4)c(C#N)c3c2=O)c2scc(C(=O)O)c2n1 [compound 646]")
41.4
>>> data_value("Cc1nc2cc(C(F)F)cc(C#N)c2c(=O)n1CCOc1ccc(Cl)cc1-c1cccc(C(=O)O)c1 [compound 153]")
54

Lookup: Consider the molecule Cc1nc2cnc(N3CCN(C4CC4)CC3(C)C)c(C#N)c2c(=O)n1CCOc1ccc(Cl)cc1-c1ccnc2c(C(=O)O)csc12 [compound 1101] and give its measured IC50.
Found: 7.2

* * *

Some molecules, each annotated with its measured log10 of IC50.
target: recombinant eIF4E (Homo sapiens (Human), UniProt P06730); experiment: Fluorescence polarization competition assay for eIF4E binding potency; details: inhibition of eIF4E/EDA-m7GDP-ATTO-550 binding by 50%; Table 4B calculated values; read-out: IC50
Field: value | Transform: log10 | Quantity: IC50 | Unit: nM

>>> data_value("O=C(O)c1cccc(-c2cc(Cl)ccc2OCCn2ccc3cnccc3c2=O)c1")
3.88
>>> data_value("Cc1cc(-c2cc(Cl)ccc2OCCn2c(C)nc3cc(C(F)(F)F)c(-c4cncnc4)nc3c2=O)c2scc(C(=O)O)c2n1")
1.35
>>> data_value("Cc1nc2cc(C(F)(F)F)cc([N+](=O)[O-])c2c(=O)n1CCOc1ccc(Cl)cc1-c1ccnc2c(C(=O)O)csc12")
1.12
>>> data_value("Cc1cc(-c2cc(Cl)ccc2OCCn2c(C)nc3cnc(-c4cc(F)ccc4C)c(C#N)c3c2=O)c2scc(C(=O)O)c2n1")
0.74
>>> data_value("COc1ccc(OCCn2cnc3cnc(C#N)cc3c2=O)c(-c2cccc(C(=O)O)c2)c1")
3.96
>>> data_value("Cc1cc(-c2cc(Cl)ccc2OCCn2c(C)nc3cnc(C(C)(F)F)c(C#N)c3c2=O)c2scc(C(=O)O)c2n1")
1.21
>>> data_value("Cc1nc2cc(C(F)(F)F)cc(C#N)c2c(=O)n1CCOc1ccc(Cl)cc1-c1cc(=O)n(C)c2c(C(=O)O)csc12")
1.58
>>> data_value("Cc1nc2cnc(N(C)C3CCN(CCOC(F)(F)F)CC3)c(C#N)c2c(=O)n1CC#Cc1ccc(Cl)cc1-c1ccnc2c(C(=O)O)csc12")
1.23
>>> data_value("N#Cc1cc2c(=O)n(CCOc3ccc(Cl)cc3-c3cc(C(=O)O)c(F)c(F)c3F)cnc2cn1")
4.64
>>> data_value("Cc1nc2cc(S(C)(=O)=O)cc(C#N)c2c(=O)n1CCOc1ccc(Cl)cc1-c1ccnc2c(C(=O)O)csc12")
1.55

Lookup: Which log10 of IC50 is reported with recombinant eIF4E (Homo sapiens (Human), UniProt P06730) for this entry: `Cc1cc(-c2cc(Cl)ccc2OCCn2c(C)nc3cc(C(F)(F)F)c(N4CC(C)(O)C4)c(C#N)c3c2=O)c2scc(C(=O)O)c2n1` ?
Found: 1.07

Lookup: So what log10 of IC50 did `N#Cc1cc2c(=O)n(CCOc3ccc(Cl)cc3-c3cc(C(=O)O)c4ccccc4n3)cnc2cn1` get with recombinant eIF4E (Homo sapiens (Human), UniProt P06730)?
Found: 3.53

Lookup: log10 of IC50 of `Cc1cc(-c2cc(Cl)ccc2OCCn2c(C)nc3cnc(N4CC(OCC(F)F)C4)c(C#N)c3c2=O)c2scc(C(=O)O)c2n1` on recombinant eIF4E (Homo sapiens (Human), UniProt P06730)?
Found: 0.60

Lookup: # get_value(readout= log10 of IC50, system= recombinant eIF4E (Homo sapiens (Human), UniProt P06730)) for `Cc1cc(-c2cc(Cl)ccc2OCCn2c(C)nc3c(F)cc(C(F)F)c(C#N)c3c2=O)c2scc(C(=O)NC(=O)N(C)C)c2n1`
Found: 3.13

Lookup: Query for recombinant eIF4E (Homo sapiens (Human), UniProt P06730): what log10 of IC50 does the record show for `Cc1nc2ccc(S(C)(=O)=O)c(C#N)c2c(=O)n1CCOc1ccc(Cl)cc1-c1ccnc2c(C(=O)O)csc12` ?
Found: 1.44

Lookup: What measured log10 of IC50 is associated with `Cc1nc2cnc(N3CCN(CCCC(F)(F)F)CC3)c(C#N)c2c(=O)n1CCOc1ccc(Cl)cc1-c1ccnc2c(C(=O)O)csc12` on recombinant eIF4E (Homo sapiens (Human), UniProt P06730)?
Found: 1.37

Lookup: Test system recombinant eIF4E (Homo sapiens (Human), UniProt P06730); read-out log10 of IC50; what value for Cc1nc2cnc(N(C)C3CCN(C4CC(F)C4)CC3)c(C#N)c2c(=O)n1CC#Cc1ccc(Cl)cc1-c1ccnc2c(C(=O)O)csc12 (centres unmarked) ?
Found: 1.14
